Where do the numbers come from? From ChEMBL document CHEMBL3885881.

- Organism: Rattus norvegicus
- procedure summary: DrugMatrix - Regimen: Daily Repeat
- Format: toxicity, organism-based, Sprague-Dawley
- Parameters: regimen Daily Repeat, gender Male, age 6-8 weeks
- condition notes: in vivo, iv, 0 mg/kg, 120 h, tissue Plasma, dose level Control, time 5 day, vehicle 100 % SALINE
This section presents compounds with their documented ALKALINE PHOSPHATASE values.
measured quantity: ALKALINE PHOSPHATASE (u/L)

1) CCc1c2c(nc3ccc(OC(=O)N4CCC(N5CCCCC5)CC4)cc13)-c1cc3c(c(=O)n1C2)COC(=O)[C@]3(O)CC :: 330.17
2) CCC1=C[C@@H]2CN(C1)Cc1c([nH]c3ccccc13)[C@@](C(=O)OC)(c1cc3c(cc1OC)N(C)[C@H]1[C@@](O)(C(=O)OC)[C@H](OC(C)=O)[C@]4(CC)C=CCN5CC[C@]31[C@@H]54)C2 :: 357.33
3) COc1cccc2c1C(=O)c1c(O)c3c(c(O)c1C2=O)C[C@@](O)(C(=O)CO)C[C@@H]3O[C@H]1C[C@H](N)[C@H](O)[C@H](C)O1 :: 271.17
4) CC[C@]1(O)C[C@@H]2CN(CCc3c([nH]c4ccccc34)[C@@](C(=O)OC)(c3cc4c(cc3OC)N(C)[C@H]3[C@@](O)(C(=O)OC)[C@H](OC(C)=O)[C@]5(CC)C=CCN6CC[C@]43[C@@H]65)C2)C1 :: 392.67
5) CC(=O)N[C@@H]1[C@H](Oc2c3cc4cc2Oc2ccc(cc2Cl)[C@@H](O[C@@H]2O[C@@H](CO)[C@@H](O)[C@H](O)[C@@H]2NC(C)=O)[C@@H]2NC(=O)[C@H](NC(=O)[C@@H]4NC(=O)[C@H]4NC(=O)[C@@H](Cc5ccc(c(Cl)c5)O3)NC(=O)[C@H](N)c3ccc(O)c(c3)Oc3cc(O)cc4c3)c3ccc(O)c(c3)-c3c(O[C@H]4O[C@H](CO)[C@@H](O)[C@@H](O)[C@@H]4O)cc(O)cc3[C@@H](C(=O)O)NC2=O)O[C@@H](CO)[C@@H](O)[C@@H]1O :: 331.33
6) COc1cccc2c1C(=O)c1c(O)c3c(c(O)c1C2=O)C[C@@](O)(C(=O)CO)C[C@@H]3O[C@H]1C[C@H](N)[C@@H](O)[C@H](C)O1 [EPIRUBICIN] :: 330.17
